Target: D-amino-acid oxidase (Sus scrofa, UniProt P00371)
Sequence (P00371 whole entry): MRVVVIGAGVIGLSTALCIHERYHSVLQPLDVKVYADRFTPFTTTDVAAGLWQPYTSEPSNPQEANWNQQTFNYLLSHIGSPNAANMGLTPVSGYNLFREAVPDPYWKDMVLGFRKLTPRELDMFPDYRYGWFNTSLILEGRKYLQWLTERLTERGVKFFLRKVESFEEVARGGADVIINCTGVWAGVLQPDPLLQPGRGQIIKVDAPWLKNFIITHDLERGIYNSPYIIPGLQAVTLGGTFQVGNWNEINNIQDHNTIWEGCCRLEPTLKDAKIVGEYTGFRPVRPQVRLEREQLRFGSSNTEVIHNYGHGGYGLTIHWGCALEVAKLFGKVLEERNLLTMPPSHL
Assay: Inhibition of DAAO in porcine kidney homogenate using D-alanine as substrate assessed as pyruvate production incubated for 5 mins by microplate reader analysis
reported-property: pIC50
# pIC50 = -log10(concentration in molar units)

These recorded examples may help you get a feel for the data.
query: Give the measured pIC50 for `Oc1nc2cc(C(F)(F)F)cnc2nc1O`
result: 4.64

query: Give the measured pIC50 for `Oc1nc2cc(Cl)cnc2nc1O`
result: 5.17

Alright, here's another compound for you.
query: Give the measured pIC50 for `O=c1[nH]c2nccc(C(F)(F)F)c2[nH]c1=O`
result: 6.28

----------
Assay: Apparent oral bioavailability in Swiss mouse at 10 mg/kg administered as oral gavage
Format: ADME, organism-based
Details: in vivo, read-out: Fapp
reported-property: bioavailability (%)
Your answer is read as %, so omit the unit and give the number.

query: Give the measured bioavailability for `O=c1[nH]c2nccc(Cl)c2[nH]c1=O`
result: 30

----------
# log10 of IC50 per entry
Molecular target: D-amino-acid oxidase (Homo sapiens, UniProt P14920)
Sequence (P14920 whole entry): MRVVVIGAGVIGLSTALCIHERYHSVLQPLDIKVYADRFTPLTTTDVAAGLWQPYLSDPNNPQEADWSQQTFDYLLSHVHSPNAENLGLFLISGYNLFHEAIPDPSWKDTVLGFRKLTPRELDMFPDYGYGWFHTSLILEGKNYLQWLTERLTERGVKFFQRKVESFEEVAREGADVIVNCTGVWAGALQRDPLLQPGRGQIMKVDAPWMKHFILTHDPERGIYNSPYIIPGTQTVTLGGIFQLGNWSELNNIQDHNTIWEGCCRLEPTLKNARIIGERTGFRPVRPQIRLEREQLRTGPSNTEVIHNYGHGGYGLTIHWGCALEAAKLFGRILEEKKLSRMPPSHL
Assay: Inhibition of human recombinant DAAO using D-alanine as substrate assessed as pyruvate production incubated for 60 mins by microplate reader analysis
Hi team, quick reminder: these entries are log10 of IC50 (nM).

These recorded examples may help you get a feel for the data.
query: Give the measured log10 of IC50 for `Cc1c(Cl)cnc2nc(O)c(O)nc12`
result: 3.05

query: Give the measured log10 of IC50 for `O=c1[nH]c2nccc(Cl)c2[nH]c1=O`
result: 2.32

query: Give the measured log10 of IC50 for `Cc1c(F)cnc2[nH]c(=O)c(=O)[nH]c12`
result: 2.53

query: Give the measured log10 of IC50 for `O=c1[nH]c2nccc(Br)c2[nH]c1=O`
result: 3.35

Alright, here's another compound for you.
query: Give the measured log10 of IC50 for `O=c1[nH]c2ncc(Cl)c(Br)c2[nH]c1=O`
result: 3.14

----------
Target: D-amino-acid oxidase (Rattus norvegicus, UniProt O35078)
Sequence (O35078 whole entry): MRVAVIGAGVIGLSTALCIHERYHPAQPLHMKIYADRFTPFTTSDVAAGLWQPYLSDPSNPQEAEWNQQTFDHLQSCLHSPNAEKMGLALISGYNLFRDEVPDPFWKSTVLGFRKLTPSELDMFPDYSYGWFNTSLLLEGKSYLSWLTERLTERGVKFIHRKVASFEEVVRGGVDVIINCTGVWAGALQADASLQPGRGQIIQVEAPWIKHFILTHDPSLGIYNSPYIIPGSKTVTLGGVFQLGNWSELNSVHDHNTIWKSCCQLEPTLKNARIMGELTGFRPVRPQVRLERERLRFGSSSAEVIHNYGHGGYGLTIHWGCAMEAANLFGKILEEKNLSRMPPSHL
Assay: Inhibition of rat spinal DAAO using D-alanine as substrate assessed as pyruvate production incubated for 60 mins by microplate reader analysis
hey, just use met if measured IC50 is less than 200 nM, otherwise not met

Please review the following examples before continuing.
query: A record lists `Oc1noc2cc(Cl)ccc12` . Is its IC50 below 200 nM?
result: met

query: A record lists `Cc1c(Cl)cnc2nc(O)c(O)nc12` . Is its IC50 below 200 nM?
result: not met

query: A record lists `O=c1[nH]c2nccc(Cl)c2[nH]c1=O` . Is its IC50 below 200 nM?
result: met

query: A record lists `Cc1c(F)cnc2[nH]c(=O)c(=O)[nH]c12` . Is its IC50 below 200 nM?
result: met

query: A record lists `O=c1[nH]c2nccc(Br)c2[nH]c1=O` . Is its IC50 below 200 nM?
result: not met

Would you kindly look at the next entry?
query: A record lists `O=c1[nH]c2ncc(Cl)c(Br)c2[nH]c1=O` . Is its IC50 below 200 nM?
result: not met

----------
# pIC50 per entry
Target: UniProt P00371
Assay: Inhibition of DAAO in porcine kidney homogenate using D-alanine as substrate assessed as pyruvate production incubated for 5 mins by microplate reader analysis
# pIC50 = -log10(concentration in molar units)

query: Give the measured pIC50 for `O=c1[nH]c2ncc(Br)c(Br)c2[nH]c1=O`
result: 6.28

Next:
query: Give the measured pIC50 for `CCc1ccnc2[nH]c(=O)c(=O)[nH]c12`
result: 5.62

query: Give the measured pIC50 for `O=c1[nH]c2nccc(Br)c2[nH]c1=O`
result: 6.66

----------
Molecular target: D-amino-acid oxidase (Sus scrofa, UniProt P00371)
Experiment: Inhibition of DAAO in porcine kidney homogenate using D-alanine as substrate assessed as pyruvate production incubated for 5 mins by microplate reader analysis
pIC50: −log10 of the molar value.
reported-property: pIC50

query: Give the measured pIC50 for `COc1ccc2nc(O)c(O)nc2n1`
result: < 4.00

query: Give the measured pIC50 for `COC(=O)c1cnc2[nH]c(=O)c(=O)[nH]c2c1`
result: < 3.00

Alright, here's another compound for you.
query: Give the measured pIC50 for `O=c1[nH]c2ccc(OCCc3ccccc3)nc2[nH]c1=O`
result: < 3.52

----------
# IC50 per entry
Target: D-amino-acid oxidase (Sus scrofa)
Experiment: Inhibition of DAAO in porcine kidney homogenate using D-alanine as substrate assessed as pyruvate production incubated for 5 mins by microplate reader analysis
Your answer is read as µM, so omit the unit and give the number.

query: Consider the compound `Cc1c(Br)cnc2nc(O)c(O)nc12` tested on D-amino-acid oxidase (Sus scrofa); state its IC50.
result: 0.4

query: Consider the compound `Oc1noc2cc(Cl)ccc12` tested on D-amino-acid oxidase (Sus scrofa); state its IC50.
result: 0.21

query: Consider the compound `Cc1cnc2nc(O)c(O)nc2c1` tested on D-amino-acid oxidase (Sus scrofa); state its IC50.
result: 36.7

query: Consider the compound `Cc1ccc2nc(O)c(O)nc2n1` tested on D-amino-acid oxidase (Sus scrofa); state its IC50.
result: 17.7

Next:
query: Consider the compound `Cc1ccnc2[nH]c(=O)c(=O)[nH]c12` tested on D-amino-acid oxidase (Sus scrofa); state its IC50.
result: 0.63

query: Consider the compound `Oc1nc2ccccc2nc1O` tested on D-amino-acid oxidase (Sus scrofa); state its IC50.
result: 33.6

query: Consider the compound `O=c1[nH]c2cc(F)cnc2[nH]c1=O` tested on D-amino-acid oxidase (Sus scrofa); state its IC50.
result: 0.46

query: Consider the compound `Oc1nc2cccnc2nc1O` tested on D-amino-acid oxidase (Sus scrofa); state its IC50.
result: 5.7

----------
Target: UniProtKB P00371
Experiment: Inhibition of DAAO in porcine kidney homogenate using D-alanine as substrate assessed as pyruvate production incubated for 5 mins by microplate reader analysis
reported-property: pIC50
# pIC50 = -log10(concentration in molar units)

These recorded examples may help you get a feel for the data.
query: Give the measured pIC50 for `O=c1[nH]c2nccc(Cl)c2[nH]c1=O`
result: 6.74

query: Give the measured pIC50 for `O=c1[nH]c2ncc(Cl)c(Br)c2[nH]c1=O`
result: 6.62

query: Give the measured pIC50 for `Cc1c(Cl)cnc2nc(O)c(O)nc12`
result: 6.59

query: Give the measured pIC50 for `Cc1c(F)cnc2[nH]c(=O)c(=O)[nH]c12`
result: 6.82

query: Give the measured pIC50 for `COc1ccnc2[nH]c(=O)c(=O)[nH]c12`
result: 4.07

query: Give the measured pIC50 for `O=c1[nH]c2ncc(Br)c(Cl)c2[nH]c1=O`
result: 6.32

Next:
query: Give the measured pIC50 for `Oc1nc2ccc(Cl)nc2nc1O`
result: 4.69

query: Give the measured pIC50 for `Oc1nc2cc(Br)cnc2nc1O`
result: 4.91

query: Give the measured pIC50 for `O=c1[nH]c2ncc(Cl)c(Cl)c2[nH]c1=O`
result: 6.19

----------
# pIC50 per entry
Target: D-amino-acid oxidase (Sus scrofa, UniProt P00371)
Assay: Inhibition of DAAO in porcine kidney homogenate using D-alanine as substrate assessed as pyruvate production incubated for 5 mins by microplate reader analysis
pIC50: −log10 of the molar value.

These recorded examples may help you get a feel for the data.
query: Give the measured pIC50 for `CCOc1ccnc2[nH]c(=O)c(=O)[nH]c12`
result: < 4.00

query: Give the measured pIC50 for `CC(C)Oc1ccnc2[nH]c(=O)c(=O)[nH]c12`
result: < 4.00

query: Give the measured pIC50 for `O=c1[nH]c2nccc(OCc3ccccc3)c2[nH]c1=O`
result: < 3.52

query: Give the measured pIC50 for `O=c1[nH]c2nccc(Oc3ccccc3)c2[nH]c1=O`
result: < 3.00

Next:
query: Give the measured pIC50 for `CCOc1ccc2[nH]c(=O)c(=O)[nH]c2n1`
result: < 4.00

----------
Molecular target: D-amino-acid oxidase (Sus scrofa, UniProt P00371)
Experiment: Inhibition of DAAO in porcine kidney homogenate using D-alanine as substrate assessed as pyruvate production incubated for 5 mins by microplate reader analysis
pIC50: −log10 of the molar value.
reported-property: pIC50

These recorded examples may help you get a feel for the data.
query: Give the measured pIC50 for `O=C(O)c1cnc2[nH]c(=O)c(=O)[nH]c2c1`
result: < 3.00

query: Give the measured pIC50 for `O=c1[nH]c2ccc(OCc3ccccc3)nc2[nH]c1=O`
result: < 3.52

query: Give the measured pIC50 for `O=c1[nH]c2nccc(OCCCc3ccccc3)c2[nH]c1=O`
result: < 3.52

Next:
query: Give the measured pIC50 for `O=c1[nH]c2nccc(OCCc3ccccc3)c2[nH]c1=O`
result: < 3.52
